Cited source: patent US10611760B2

target: hOX1R (Homo sapiens); assay: Intracellular calcium measurements using division-arrested cells, OX1; assay type: cell-based; details: agonist orexin A at 2×EC50, * = single experiment, otherwise average of at least two, read-out: pIC50 OX1 (converted)
Decide using IC50 alone. Strictly below 80 nM: Y. Equal to or above 80 nM: N.

INSERT INTO results (molecule, category) VALUES
  ('Cc1nc(C(=O)N(C)[C@H](CNc2ccc(Cl)cn2)C(C)C)c(-c2ccccc2)s1 [Example 26]', 'Y'),
  ('CC(C)[C@@H](CNc1ccc(Cl)cc1)N(C)C(=O)c1ccccc1-c1ccccc1 [Example 59]', 'N'),
  ('CN(C(=O)c1ccccc1-c1ccccc1)[C@H](CNc1ccc(Cl)cn1)C(C)(C)C [Example 12]', 'N');

Regarding CC(C)[C@@H](COc1ncc2ccccc2n1)N(C)C(=O)c1ccccc1-c1ccccc1 [Example 31] , kindly confirm whether its IC50 is beneath 80 nM. N

Regarding CC(C)[C@@H](COc1nc2ccccc2n1C)N(C)C(=O)c1ccccc1-c1ccccc1 [Example 33] , kindly confirm whether its IC50 is beneath 80 nM. N

Regarding CC[C@@H](CNc1ccc(C(F)(F)F)cn1)N(C)C(=O)c1nc(C)ccc1-n1nccn1 [Example 48] , kindly confirm whether its IC50 is beneath 80 nM. Y

Regarding CC(C)[C@@H](COc1nccc(-c2ccccc2)n1)N(C)C(=O)c1ccccc1-c1ccccc1 [Example 32] , kindly confirm whether its IC50 is beneath 80 nM. N

Regarding Cc1nc(-c2ccccc2)c(C(=O)N(C)[C@H](CNc2ccc(Cl)cn2)CC(C)C)s1 [Example 9] , kindly confirm whether its IC50 is beneath 80 nM. N

Regarding CC[C@@H](CNc1ccc(C(F)(F)F)nc1)N(C)C(=O)c1cc(Cl)ccc1-n1nccn1 [Example 54] , kindly confirm whether its IC50 is beneath 80 nM. Y

Regarding CC(C)[C@@H](CNc1ccc(Cl)cn1)N(C)C(=O)c1ccccc1OC(F)(F)F [Example 52] , kindly confirm whether its IC50 is beneath 80 nM. N

Regarding CC[C@@H](CNc1ccc(Cl)cn1)NC(=O)c1cc(C)ccc1-n1nccn1 [Example 2] , kindly confirm whether its IC50 is beneath 80 nM. Y

Regarding CC[C@@H](CNc1ccc(Cl)cn1)N(C)C(=O)c1cc(N(C)C)ccc1-n1nccn1 [Example 23] , kindly confirm whether its IC50 is beneath 80 nM. Y

Regarding CC(C)[C@@H](CNc1ncc2ccccc2n1)N(C)C(=O)c1ccccc1-c1ccccc1 [Example 36] , kindly confirm whether its IC50 is beneath 80 nM. Y

Regarding CC(C)[C@@H](COCc1ccc(F)cc1)N(C)C(=O)c1ccccc1-c1ccccc1 [Example 29] , kindly confirm whether its IC50 is beneath 80 nM. N

====

Overview of reported IC50 across a group of molecules:
Target: hOX2R (Homo sapiens)
Sequence (O43614 whole entry): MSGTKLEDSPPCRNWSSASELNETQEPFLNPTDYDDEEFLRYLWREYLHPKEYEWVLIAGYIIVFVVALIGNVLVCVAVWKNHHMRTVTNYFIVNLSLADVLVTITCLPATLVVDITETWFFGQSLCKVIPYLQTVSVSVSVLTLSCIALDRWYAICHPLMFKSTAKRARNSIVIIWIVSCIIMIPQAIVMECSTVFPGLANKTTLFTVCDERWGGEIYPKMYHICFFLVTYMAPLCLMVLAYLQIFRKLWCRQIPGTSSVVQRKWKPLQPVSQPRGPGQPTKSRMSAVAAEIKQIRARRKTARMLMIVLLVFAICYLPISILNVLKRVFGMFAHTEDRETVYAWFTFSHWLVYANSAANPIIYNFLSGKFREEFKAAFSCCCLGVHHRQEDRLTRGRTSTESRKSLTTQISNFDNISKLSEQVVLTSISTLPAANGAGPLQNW
Experiment: Intracellular calcium measurements using stable-replicating cells, Method B (CHO cells, FLIPR Tetra), OX2
Type: cell-based
Conditions: orexin A at EC75, read-out: pIC50 OX2 (converted)
Protocol: Intracellular Calcium Measurements Using Stable-replicating Cells: Human OX1 or human OX2 receptor expressing CHO cells are plated into 384 well black, clear bottom, CellBIND plates at a seeding density of 10,000 cells/75 μL growth media. The seeded plates are incubated at 37° C. in air supplemented with 5% CO2 overnight. […]

INSERT INTO measurements (molecule, measured_endpoint, reading) VALUES
  ('CC[C@@H](CNc1ncc(C(F)(F)F)cn1)N(C)C(=O)c1cc(Cl)ccc1-n1nccn1 [Example 39]', 'IC50', '1580 nM');

What value of IC50 has been reported for the following molecule? CC[C@@H](CNc1ccc2ncccc2n1)N(C)C(=O)c1nc(C)ccc1-n1nccn1 [Example 76] > 2000 nM

What value of IC50 has been reported for the following molecule? CC[C@@H](CNc1nc2ccccc2s1)N(C)C(=O)c1nc(C)ccc1-n1nccn1 [Example 63] 501 nM

What value of IC50 has been reported for the following molecule? Cc1ccc(-n2nccn2)c(C(=O)N(C)[C@H](CNc2ncc(C(F)(F)F)cn2)C(C)C)n1 [Example 66] > 631 nM

====

Overview of reported IC50 across a group of molecules:
target: hOX2R (Homo sapiens); experiment: Intracellular calcium measurements using division-arrested cells, OX2; assay type: cell-based; conditions: agonist orexin B at 2×EC50, * = single experiment, otherwise average of at least two, read-out: pIC50 OX2 (converted)

Completed entries (count: 3):
INSERT INTO measurements (smiles_input, measured_endpoint, reading) VALUES
  ('CC(C)[C@@H](CNc1ccc(Cl)cn1)NC(=O)c1ccccc1-c1ccccc1', 'IC50', '> 10 µM'),
  ('CC[C@@H](CNc1ccc(Cl)cn1)NC(=O)c1cc(C)ccc1-n1nccn1', 'IC50', '2 µM'),
  ('CC(C)[C@@H](CNC(=O)Nc1ccccc1)N(C)C(=O)c1ccccc1-c1ccccc1', 'IC50', '> 5.01 µM');

As a next step, examine the molecule that follows.
What value of IC50 has been reported for the following molecule? `CC(C)[C@@H](CNc1ccc(Cl)cn1)N(C)C(=O)c1ccccc1OC(F)(F)F` > 7.94 µM

====

Overview of reported IC50 across a group of compounds:
biological target: hOX1R (Homo sapiens); assay: Intracellular calcium measurements using stable-replicating cells, Method A, OX1; assay type: cell-based; details: orexin-A at 4×EC50, * = single experiment, read-out: pIC50 OX1 (converted)
Number first, unit second: that is the form wanted.

INSERT INTO results (smiles_input, measured_endpoint, reading) VALUES
  ('CC[C@@H](CNc1ncc(C(F)(F)F)cn1)N(C)C(=O)c1cccc2cccnc12', 'IC50', '100 nM'),
  ('Cc1ccc(-n2nccn2)c(C(=O)N(C)[C@H](CNc2ncc(C(F)(F)F)cn2)CC(F)(F)F)n1', 'IC50', '39.8 nM'),
  ('CC[C@@H](CNc1nc2ccccc2s1)N(C)C(=O)c1nc(C)ccc1-n1nccn1', 'IC50', '1.58 nM'),
  ('CC[C@@H](CNc1ncc(C(F)(F)F)cn1)N(C)C(=O)c1cc(Cl)cc2cccnc12', 'IC50', '25.1 nM'),
  ('CC[C@@H](CNc1ncc(Cl)cc1[N+](=O)[O-])N(C)C(=O)c1cc(Cl)ccc1-n1nccn1', 'IC50', '126 nM'),
  ('CC[C@@H](CNc1ncc2ccccc2n1)N(C)C(=O)c1nc(C)ccc1-n1nccn1', 'IC50', '3.98 nM'),
  ('CC[C@@H](CNc1nc2ccccc2o1)N(C)C(=O)c1nc(C)ccc1-n1nccn1', 'IC50', '5.01 nM');

As a next step, examine the compound that follows.
What value of IC50 has been reported for the following compound? `Cc1nc(-c2ccccc2)c(C(=O)N(C)[C@H](CNc2ccc(Cl)cn2)CC(C)C)s1` 2000 nM

====

Biological target: UniProt O43613
Experiment: Intracellular calcium measurements using stable-replicating cells, Method A, OX1
Assay type: cell-based
Settings: orexin-A at 4×EC50, * = single experiment, read-out: pIC50 OX1 (converted)
Experimental: Intracellular Calcium Measurements Using Stable-replicating Cells: […] Loading dye (25 μL/well), prepared from a FLIPR Calcium 6 Assay kit (Molecular Devices, R8190-Explorer) according to the manufacturer's instructions, and the serially diluted test compounds (10 μL/well) are added to the plate. The plate is then incubated for 30 mins at 37° C. in 5% CO2, then for 30 mins at ambient temperature and placed into a FlexStation III reader.
measured-endpoint: IC50 (nM)
Give the value in nM but do not write nM after it.

Completed entries (count: 4):
INSERT INTO assay_data (compound, tgt, measured_endpoint, unit_tag, reading) VALUES
  ('CC[C@@H](CNc1ncc(C(F)(F)F)cn1)N(C)C(=O)c1nc(C)cc2ccccc12 [Example 78]', 'UniProt O43613', 'IC50', 'nM', 25.1),
  ('CC[C@@H](CNc1nc2cc(Cl)ccc2o1)N(C)C(=O)c1nc(C)ccc1-n1nccn1 [Example 64]', 'UniProt O43613', 'IC50', 'nM', 5.01),
  ('CC[C@@H](CNc1nc2ccccc2s1)N(C)C(=O)c1cc(Cl)ccc1-n1nccn1 [Example 44]', 'UniProt O43613', 'IC50', 'nM', 7.94),
  ('CC[C@@H](CNc1ncc(C(F)(F)F)cn1)N(C)C(=O)c1nc(C)ccc1-n1nccn1 [Example 46]', 'UniProt O43613', 'IC50', 'nM', 31.6);

As a next step, examine the compound that follows.
What value of IC50 has been reported for the following compound? CC[C@@H](CNc1ncc(C(F)(F)F)cn1)N(C)C(=O)c1nc(N(C)C)cc2ccccc12 [Example 81] 39.8

====

Molecular target: hOX1R (Homo sapiens, UniProt O43613)
Sequence (O43613 1-425): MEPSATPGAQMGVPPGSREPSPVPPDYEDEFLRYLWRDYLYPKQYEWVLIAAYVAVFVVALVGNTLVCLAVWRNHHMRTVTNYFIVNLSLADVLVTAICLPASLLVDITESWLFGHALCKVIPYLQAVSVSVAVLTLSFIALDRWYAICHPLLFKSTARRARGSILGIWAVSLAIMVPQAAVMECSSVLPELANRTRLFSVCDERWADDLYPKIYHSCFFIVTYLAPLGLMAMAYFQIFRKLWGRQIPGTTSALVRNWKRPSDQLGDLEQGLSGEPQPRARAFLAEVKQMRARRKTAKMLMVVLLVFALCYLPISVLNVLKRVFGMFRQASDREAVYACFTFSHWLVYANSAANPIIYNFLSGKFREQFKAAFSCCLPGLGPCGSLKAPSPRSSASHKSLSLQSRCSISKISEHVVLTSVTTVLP
Assay: Intracellular calcium measurements using stable-replicating cells, Method A, OX1
Assay type: cell-based
Conditions: orexin-A at 4×EC50, * = single experiment, read-out: pIC50 OX1 (converted)
Overview of reported IC50 across a group of molecules:
Give the value in nM but do not write nM after it.

Completed entries (count: 3):
INSERT INTO assay_data (smiles_input, tgt, measured_endpoint, reading) VALUES
  ('CC[C@@H](CNc1ncc(C(F)(F)F)cn1)N(C)C(=O)c1nccc2ccccc12', 'hOX1R (Homo sapiens, UniProt O43613)', 'IC50', 50.1),
  ('CC[C@@H](CNc1ncc(Cl)cc1N)N(C)C(=O)c1cc(Cl)ccc1-n1nccn1', 'hOX1R (Homo sapiens, UniProt O43613)', 'IC50', 39.8),
  ('CC[C@@H](CNc1nc2ccccc2o1)N(C)C(=O)c1cc(Cl)ccc1-n1nccn1', 'hOX1R (Homo sapiens, UniProt O43613)', 'IC50', 10);

Find the measured IC50: item `CC[C@@H](CNc1ccc2ccccc2n1)N(C)C(=O)c1cc(Cl)ccc1-n1nccn1` , target or system hOX1R (Homo sapiens, UniProt O43613). 7.94
